Test system: Endothelial cells (HUVEC, BAEC)
Assay: Endothelial cell proliferation
Format: cell-based, human / bovine
Conditions: 48 hours; copper equivalent; NA = less than 50% at 1.25 mM copper equivalent; read-out: EC proliferation (EC50 mM)
Response field label: string, one of Fulfilled (EC50 strictly below 0.3 mM) or Not fulfilled.

{"Compound": "NCCCC[C@H](N)C(=O)[O-].NCCCC[C@H](N)C(=O)[O-].[Cu+2] [Compound 9, L-Lys:Cu:L-Lys]", "Cat": "Not fulfilled"}
{"Compound": "O=C([O-])[C@@H]1CCCN1.O=C([O-])[C@@H]1CCCN1.[Cu+2] [Compound 28, L-Pro:Cu:L-Pro]", "Cat": "Fulfilled"}
{"Compound": "N[C@@H](CO)C(=O)[O-].N[C@@H](CO)C(=O)[O-].[Cu+2] [Compound 3, L-Ser:Cu:L-Ser]", "Cat": "Not fulfilled"}
{"Compound": "CC(C)C(N)C(=O)[O-].CC(C)C(N)C(=O)[O-].[Cu+2] [Compound 4, L-Val:Cu:L-Val]", "Cat": "Not fulfilled"}
{"Compound": "N=C(N)NCCC[C@H](N)C(=O)[O-].N=C(N)NCCC[C@H](N)C(=O)[O-].[Cu+2] [Compound 8, L-Arg:Cu:L-Arg]", "Cat": "Not fulfilled"}
{"Compound": "[Cl-].[Cl-].[Zn+2] [Zn++, reference compound]", "Cat": "Fulfilled"}
{"Compound": "C[C@H](N)C(=O)O.N[C@@H](CCC(=O)[O-])C(=O)[O-].[Cu+2] [Compound 20, L-Ala:Cu:L-Glu]", "Cat": "Fulfilled"}
{"Compound": "CC[C@H](C)[C@H](N)C(=O)[O-].CC[C@H](C)[C@H](N)C(=O)[O-].[Cu+2] [Compound 12, L-Ile:Cu:L-IIe]", "Cat": "Not fulfilled"}
{"Compound": "[Cl-].[Cl-].[Co+2] [Co++, reference compound]", "Cat": "Fulfilled"}
{"Compound": "NCC(=O)[O-].NCC(=O)[O-].[Cu+2] [Compound 1, Gly:Cu:GIy]", "Cat": "Fulfilled"}
{"Compound": "CC(N)C(=O)[O-].CC(N)C(=O)[O-].[Cu+2] [Compound 13, D-Ala:Cu:D-Ala]", "Cat": "Not fulfilled"}
{"Compound": "C[C@@H](O)[C@H](N)C(=O)[O-].N[C@@H](CC(=O)O)C(=O)[O-].[Cu+2] [Compound 25, L-Asp:Cu:L-Thr]", "Cat": "Fulfilled"}
{"Compound": "C[C@H](N)C(=O)[O-].C[C@H](N)C(=O)[O-].[Cu+2] [Compound 2, L-Ala:Cu:L-Ala]", "Cat": "Fulfilled"}
{"Compound": "NC(=O)CC[C@H](N)C(=O)[O-].NC(=O)CC[C@H](N)C(=O)[O-].[Cu+2] [Compound 11, L-Gln:Cu:L-Gln]", "Cat": "Not fulfilled"}
{"Compound": "N[C@@H](Cc1c[nH]cn1)C(=O)[O-].N[C@@H](Cc1c[nH]cn1)C(=O)[O-].[Cu+2] [Compound 10, L-His:Cu:L-His]", "Cat": "Not fulfilled"}

====

Assay: Affinity of the amino acid with copper
Format: physicochemical
Property measured: Affinity of the AA with Cooper

{"Compound": "N=C(N)NCCC[C@H](N)C(=O)[O-].N=C(N)NCCC[C@H](N)C(=O)[O-].[Cu+2]", "Result value": 14.9}
{"Compound": "C[C@H](N)C(=O)[O-].C[C@H](N)C(=O)[O-].[Cu+2]", "Result value": 15.9}
{"Compound": "NCCCC[C@H](N)C(=O)[O-].NCCCC[C@H](N)C(=O)[O-].[Cu+2]", "Result value": 14.4}
{"Compound": "N[C@@H](CO)C(=O)[O-].N[C@@H](CO)C(=O)[O-].[Cu+2]", "Result value": 15.4}
{"Compound": "CC(C)C(N)C(=O)[O-].CC(C)C(N)C(=O)[O-].[Cu+2] (centres unmarked)", "Result value": 15.2}
{"Compound": "C[C@@H](O)[C@H](N)C(=O)[O-].C[C@@H](O)[C@H](N)C(=O)[O-].[Cu+2]", "Result value": 15.4}
{"Compound": "N[C@@H](Cc1c[nH]cn1)C(=O)[O-].N[C@@H](Cc1c[nH]cn1)C(=O)[O-].[Cu+2]", "Result value": 19.4}
{"Compound": "CC[C@H](C)[C@H](N)C(=O)[O-].CC[C@H](C)[C@H](N)C(=O)[O-].[Cu+2]", "Result value": 16.6}
{"Compound": "O=C([O-])[C@@H]1CCCN1.O=C([O-])[C@@H]1CCCN1.[Cu+2]", "Result value": 17.6}
{"Compound": "NCC(=O)[O-].NCC(=O)[O-].[Cu+2]", "Result value": 16.0}
{"Compound": "NC(=O)CC[C@H](N)C(=O)[O-].NC(=O)CC[C@H](N)C(=O)[O-].[Cu+2]", "Result value": 15.5}

Entry source: patent US20030087830A1
